Molecular target: Orf1 (Streptomyces luteocolor, UniProt A0A125SZC1, E312A)
Construct: full length, 491 residues; pET28a, His-tagged (Ni-NTA), E. coli BL21(DE3); tetramer with FAD in each chain; peptide AFAC281GLHLVPR
Assay: isothermal titration calorimetry
metric: pKd
For clarity, pKd is expressed as the negative log10 of concentration in mol/L.

In: Reported pKd for NCCCC(N)CC(=O)NC1C(N=C2NC3C(=O)NCC(O)C3N2)OC(CO)C(OC(N)=O)C1O (stereo not shown) [compound 7, ST-F] : what is it?
Out: 4.26

Data credit: paper PMC10156733
